- Tested on: MDA-MB-231 cells
- PROTOCOL DETAILS: MTT antiproliferative assay, MDA-MB-231
- TEST CONTEXT: read-out: IC50 (μM) MDA-MB231; MTT, MDA-MB-231 (breast); mean ± SD of three experiments
// classify: if (IC50 < 10 µM) t else f

MOLECULE	ANSWER LABEL
O=C(CSc1nnc(Cn2c(-c3ccc(Cl)cc3Cl)nc3ccccc32)o1)Nc1ccc(F)cc1F [Compound 14]	f
Oc1ccccc1-n1cc(CSc2nnc(Cn3c(-c4ccc(Cl)cc4Cl)nc4ccccc43)o2)nn1 [Compound 10]	t
Clc1ccc(-c2nc3ccccc3n2Cc2nnc(SCc3cn(-c4ccc(Cl)cc4Cl)nn3)o2)c(Cl)c1 [Compound 12]	f
Clc1ccc(-c2nc3ccccc3n2Cc2nnc(SCc3cn(-c4cccc(Br)c4)nn3)o2)c(Cl)c1 [Compound 9]	f
O=C(CSc1nnc(Cn2c(-c3ccc(Cl)cc3Cl)nc3ccccc32)o1)Nc1ccc(Br)cc1 [Compound 15]	f
Cc1ccccc1-n1cc(CSc2nnc(Cn3c(-c4ccc(Cl)cc4Cl)nc4ccccc43)o2)nn1 [Compound 11]	f
O=C(CSc1nnc(Cn2c(-c3ccc(Cl)cc3Cl)nc3ccccc32)o1)Nc1ccc(F)cc1 [Compound 13]	t
COc1ccc(NC(=O)CSc2nnc(Cn3c(-c4ccc(Cl)cc4Cl)nc4ccccc43)o2)cc1 [Compound 16]	f
COC(=O)c1ccccc1NC(=O)CSc1nnc(Cn2c(-c3ccc(Cl)cc3Cl)nc3ccccc32)o1 [Compound 17]	f
COc1cccc2c1C(=O)c1c(O)c3c(c(O)c1C2=O)C[C@@](O)(C(=O)CO)C[C@@H]3O[C@H]1C[C@H](N)[C@H](O)[C@H](C)O1 [doxorubicin, reference compound]	t
Fc1ccc(-n2cc(CSc3nnc(Cn4c(-c5ccc(Cl)cc5Cl)nc5ccccc54)o3)nn2)cc1 [Compound 8]	f

This collection of values is drawn from paper PMC9607330.
